Numbers sourced from patent US11926596B2.

- Assay method text: Mouse pharmacokinetic study, plasma and brain distribution 2 hours after dosing
- Assay type: in vivo
- Run parameters: plasma, PO 10 mg base/kg, 2 hours post-dose, read-out: Plasma Concentration
Property measured: concentration at 2 h

Compound	Recorded measurement
CNC(C(=O)Nc1ccc2[nH]ncc2c1)c1ccccc1 (stereo not shown)	405 ng/mL

###

- Assay method text: Mouse pharmacokinetic study, plasma and brain distribution 2 hours after dosing
- Format: in vivo
- Run parameters: brain/plasma, PO 30 mg base/kg, 2 hours post-dose, read-out: Brain/Plasma Ratio

Compound	Kp at 2 h
CNC(C(=O)Nc1ccc2[nH]ncc2c1)c1ccccc1 (stereo not shown) [Example 2]	2.04

###

- Test system: phospho-myosin light chains (ppMlc, Thr18/Ser19) in A7R5 cells
- Assay method text: A7R5 in-cell ELISA, phospho-myosin light chain
- Assay type: cell-based, rat
- Run parameters: Rattus norvegicus, 1.5 h; A7R5 cells, 90 min; read-out: pMLC IC50 A7R5

Compound	IC50 / nM
CNC(C(=O)Nc1ccc2[nH]ncc2c1)c1ccccc1 (stereo not shown) [Example 2]	304
NC(C(=O)Nc1ccc2[nH]ncc2c1)c1ccccc1 (stereo not shown) [Comp3, reference compound]	10900
COc1ccc(C(NC(C)C)C(=O)Nc2ccc3[nH]ncc3c2)cc1 (stereo not shown) [Example 25]	633
CN[C@@H](C(=O)Nc1ccc2[nH]ncc2c1)c1cccc(OC)c1 [Example 54]	200
CNC(C(=O)Nc1ccc2[nH]ncc2c1)c1ccc(OC(F)(F)F)cc1 (stereo not shown) [Example 56]	546
NC(C(=O)Nc1ccc2[nH]ncc2c1)c1ccc(Cl)cc1 (stereo not shown) [Comp2, reference compound]	4410
CNC(C(=O)Nc1ccc2[nH]ncc2c1)c1ccc(OC)c(F)c1 (stereo not shown) [Example 57]	339
O=C(Nc1ccc2[nH]ncc2c1)C1CNCc2ccccc21 (stereo not shown) [Example 8]	2620
CC(C)NC(C(=O)Nc1ccc2[nH]ncc2c1)c1ccc(Cl)cc1 (stereo not shown) [Example 18]	2510
CC(C)NC(C(=O)Nc1ccc2[nH]ncc2c1)c1ccc(F)cc1 (stereo not shown) [Example 20]	2510
CC(C)NC(C(=O)Nc1ccc2[nH]ncc2c1)c1ccccc1 (stereo not shown) [Example 22]	1800
CCNC(C(=O)Nc1ccc2[nH]ncc2c1)c1ccc(Cl)cc1 (stereo not shown) [Example 17]	556
CCNC(C(=O)Nc1ccc2[nH]ncc2c1)c1cccc(F)c1 (stereo not shown) [Example 51]	1660
CCNC(C(=O)Nc1ccc2[nH]ncc2c1)c1ccc(C)cc1 (stereo not shown) [Example 30]	502
CCNC(C(=O)Nc1ccc2[nH]ncc2c1)c1ccc(F)cc1 (stereo not shown) [Example 23]	1060
CNC(C(=O)Nc1ccc2[nH]ncc2c1)c1ccc(Cl)cc1 (stereo not shown) [Example 16]	252
